Data origin, for the record: a melting point compilation (Tetko et al.; mined from patent text by program, amines drawn as free bases though some values may be those of a salt)

Value Type: melting point

INSERT INTO results (compound, readout_value) VALUES
  ('CC(=O)N[C@@H]1CN2C(=O)N(c3cc(Cl)cc(Cl)c3)C(=O)[C@@]2(Cc2ccc(Br)cc2)C1', '141 °C'),
  ('COc1cc(Nc2nccc(-c3ccc(N4CCC(O)CC4)nc3)n2)cc(OC)c1OC', '127 to 128 °C'),
  ('N#Cc1ccc2c(c1)Sc1ccccc1CC2', '145 to 147 °C'),
  ('O=C(O)c1ccc(Cl)c2c1OCCO2', '195 °C'),
  ('Cc1ccc(-n2c(=O)c3c(N4CCNCC4)cc(Cl)cc3n(Cc3ccccc3)c2=O)cc1', '120 to 124 °C'),
  ('Nc1nccc(-c2c(-c3ccccc3)nn3ccccc23)n1', '222 to 223 °C'),
  ('Cc1c(O)ccc2c(=O)c(-c3cccc(C(F)(F)F)c3)coc12', '283 to 284 °C'),
  ('CCCCCCCCCCCCCCCCCCOC(=O)Nc1ccc(NC(=O)NS(=O)(=O)c2ccc(OC)cc2)cc1', '190 °C'),
  ('Cc1c(C(=O)Nc2ccc(-c3ccc(S(=O)(=O)NC(C(=O)O)C(C)C)cc3)cc2)oc2ccccc12 (stereo unspecified)', '264 to 266 °C'),
  ('O=C1CCCc2cc3c(cc21)sc1ccccc13', '160 to 165 °C'),
  ('COc1nc(OC)c(I)c(C(=O)O)n1', '125 to 126 °C'),
  ('OC(CSc1ccnc2ccccc12)c1ccc2ccccc2c1 (stereo unspecified)', '170 to 172 °C'),
  ('O=[N+]([O-])c1ccc(Nc2c(F)c(F)nc(F)c2F)c(C(F)(F)F)c1', '104 to 105 °C'),
  ('CC1(CC(=O)O)CCc2ccccc2C1=O (stereo unspecified)', '114 to 116 °C'),
  ('CC(C)C(=O)O[C@H]1[C@H](C)OC(=O)[C@@H](NC(=O)OC(C)(C)C)COC(=O)[C@@H]1CC(=O)OC(C)(C)C', '170 to 172 °C'),
  ('COc1ncnc(Cl)c1[N+](=O)[O-]', '65 °C');

* * *

Parameter melting point: see the listing below.
Value Type: melting point

INSERT INTO measurements (molecule, readout_value) VALUES
  ('NS(=O)(=O)c1cc(C(=O)NNc2ccccc2)ccc1Cl', '189 to 190 °C'),
  ('Cc1cc(Br)cc(C)c1NC(=O)C(C)Br (stereo not given)', '187 to 189 °C'),
  ('OCC1OC(n2cnc3c(NN4CCCCC4)nc(F)nc32)C(O)C1O (stereo not given)', '197 to 199 °C'),
  ('CCC(CC)CCc1nn(C)c2cc(C(=O)OC)ccc12', '91 to 93 °C'),
  ('COc1ccc(S(=O)(=O)NCCc2ccc(C(C)=O)cc2)cc1', '122 to 123 °C');

* * *

Value Type: melting point

INSERT INTO assay_data (compound, value_type, readout_value) VALUES
  ('CCOc1c(C)c(N2CCN(c3ccc(F)cc3)CC2)c(C)c2c1OC(C)C2 (stereo not drawn)', 'melting point', '136 to 138 °C'),
  ('CC1(C)CCCN(C(=O)c2ccccc2NC(=O)CN2C(=O)c3ccccc3C2=O)C1', 'melting point', '158 °C'),
  ('CSc1cccc2c1Sc1ccc(O)cc1N2', 'melting point', '188 to 190 °C'),
  ('NC(=O)c1ccc(C(F)(F)F)c(N)c1', 'melting point', '147 to 149 °C'),
  ('COC(=O)CCCCCCC1=CCc2cc(OC)ccc21', 'melting point', '30 to 31.5 °C'),
  ('COc1cc2c(Nc3ccc(Sc4nccn4C)c(Cl)c3)c(C#N)cnc2cc1N1CCC(N2CCCC2)CC1', 'melting point', '225 to 229 °C'),
  ('Cc1noc(NS(=O)(=O)c2ccc(Nc3ccc(N)cc3N)cc2)c1C', 'melting point', '181 to 183 °C'),
  ('CC(C)(C)c1cc(C(=O)COc2ccc(C(=O)OCc3ccccc3)c(O)c2)cc(C(C)(C)C)c1O', 'melting point', '123 to 124 °C');
